target: human αvβ5 expressed on BaF3 cells (stably transfected with human αv and β5 subunits) (human, UniProt P06756 31-1048; P18084 24-799); assay: cell-based or functional assay
Sequence (P06756 31-1048 limits assumed, chain 1 of 2): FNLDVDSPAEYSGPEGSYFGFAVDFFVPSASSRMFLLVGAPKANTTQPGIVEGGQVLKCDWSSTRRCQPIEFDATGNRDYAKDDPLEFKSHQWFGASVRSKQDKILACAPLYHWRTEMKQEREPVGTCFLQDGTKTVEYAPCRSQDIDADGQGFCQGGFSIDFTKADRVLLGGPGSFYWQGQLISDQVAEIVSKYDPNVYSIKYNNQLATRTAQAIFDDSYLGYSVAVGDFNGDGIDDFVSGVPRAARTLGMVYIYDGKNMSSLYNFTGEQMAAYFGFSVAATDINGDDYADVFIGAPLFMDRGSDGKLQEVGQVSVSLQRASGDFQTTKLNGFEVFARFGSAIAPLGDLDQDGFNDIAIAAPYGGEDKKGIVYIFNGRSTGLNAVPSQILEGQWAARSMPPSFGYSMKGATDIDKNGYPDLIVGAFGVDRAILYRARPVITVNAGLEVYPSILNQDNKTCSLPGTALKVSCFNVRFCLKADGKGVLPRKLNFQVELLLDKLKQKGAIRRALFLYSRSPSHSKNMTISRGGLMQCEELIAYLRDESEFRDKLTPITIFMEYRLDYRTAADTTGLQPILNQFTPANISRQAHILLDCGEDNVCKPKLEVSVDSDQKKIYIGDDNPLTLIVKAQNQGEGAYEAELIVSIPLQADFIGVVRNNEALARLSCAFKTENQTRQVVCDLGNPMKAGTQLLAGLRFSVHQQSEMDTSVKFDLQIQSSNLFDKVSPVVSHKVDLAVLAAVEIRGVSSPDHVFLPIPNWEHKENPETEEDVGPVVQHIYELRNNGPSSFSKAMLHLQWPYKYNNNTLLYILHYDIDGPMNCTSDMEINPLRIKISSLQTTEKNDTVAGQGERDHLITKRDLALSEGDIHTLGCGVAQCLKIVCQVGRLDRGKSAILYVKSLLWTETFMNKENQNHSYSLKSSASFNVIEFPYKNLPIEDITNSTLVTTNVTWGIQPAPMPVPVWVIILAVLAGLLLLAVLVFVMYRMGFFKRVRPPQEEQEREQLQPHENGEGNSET
Sequence (P18084 24-799 limits assumed, chain 2 of 2): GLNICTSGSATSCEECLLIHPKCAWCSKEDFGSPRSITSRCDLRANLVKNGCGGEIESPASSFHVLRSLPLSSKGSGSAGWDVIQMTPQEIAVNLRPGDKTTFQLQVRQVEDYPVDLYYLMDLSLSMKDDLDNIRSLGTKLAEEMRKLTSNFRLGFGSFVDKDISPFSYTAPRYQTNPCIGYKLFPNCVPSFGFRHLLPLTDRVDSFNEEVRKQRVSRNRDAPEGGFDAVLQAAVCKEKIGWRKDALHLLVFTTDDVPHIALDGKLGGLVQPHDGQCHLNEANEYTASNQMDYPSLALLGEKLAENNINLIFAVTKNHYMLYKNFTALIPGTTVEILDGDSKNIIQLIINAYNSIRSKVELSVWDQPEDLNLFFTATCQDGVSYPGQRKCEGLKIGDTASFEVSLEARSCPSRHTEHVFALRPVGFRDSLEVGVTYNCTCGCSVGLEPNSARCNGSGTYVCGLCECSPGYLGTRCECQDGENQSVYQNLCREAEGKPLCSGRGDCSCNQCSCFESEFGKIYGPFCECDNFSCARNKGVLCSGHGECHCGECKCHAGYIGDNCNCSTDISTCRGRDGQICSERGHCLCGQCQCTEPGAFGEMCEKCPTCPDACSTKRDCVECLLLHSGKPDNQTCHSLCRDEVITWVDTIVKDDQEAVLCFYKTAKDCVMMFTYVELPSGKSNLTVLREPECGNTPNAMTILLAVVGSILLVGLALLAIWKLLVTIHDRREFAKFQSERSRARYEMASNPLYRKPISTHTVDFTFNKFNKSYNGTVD
quantityName: BaF3-hu αvβ5 Cell adhesion to vitronectin (IC50, nM)
Numeric answer only, unit nM assumed.

Worked set:
{"binder": "VH4/VL0 Agly-IgG4.P (S228P)/IgG1 (N297Q) (antibody, V domains shown, also called VH4/VL0 (Agly-IgG4P/G1); H4/L0) VH: EVQVVQSGGGLVKPGESLRLSCKASGYTFTSYWMHWVKQAPGKGLEWVGAIYPGNSDTSYNQKFKGKFTISADTSPNTAYLQMNSLKTEDTAVYYCTTTTYGYDWFAYWGQGTLVTVSS VL: DIQMTQSPSSVSASVGDRVTITCKSSQSVLYSSNQKNYLAWYQQKPGKAPKLLIYWASTRESGVPSRFSGSGSGTDFTLTISSLQPEDFATYYCHQYLSSLTFGQGTKVEIKR", "dataValue": 0.09}
{"binder": "Mouse chimeric ALULA (murine ALULA variable domains fused to human IgG1 heavy chain and human kappa light chain domains) (antibody, V domains shown, also called chimeric form of ALULA; chimeric murine antibody) VH: EVQVQQSGTVLARPGASVKMSCKASGYTFTSYWMHWVKQRPGQGLEWIGAIYPGNSDTSYNQKFKGKAKLTAVTSPNTAYMELSSLTNEDSAVYYCTTTTYGYDWFAYWGQGTLVTVSA VL: NIMMTQSPSSLTVSAGEKVTMSCKSSQSVLYSSNQKNYLAWYQQKPGQSPKLLIYWASTRESGVPDRFTGSGSGTDFTLTISSVQAEDLAVYYCHQYLSSLTFGAGTKLELK", "dataValue": 0.17}
{"binder": "VH5/VL2 Agly-IgG4.P (S228P)/IgG1 (N297Q) (antibody, V domains shown, also called VH5/VL2 (Agly-IgG4P/G1); H5/L2) VH: EVQVQQSGGGLVKPGGSLRLSCKASGYTFTSYWMHWVKQAPGKGLEWVGAIYPGNSDTSYNQKFKGKATLSAVTSPNTAYLQMNSLKTEDTAVYYCTTTTYGYDWFAYWGQGTLVTVSS VL: NIQMTQSPSSLSASVGDRVTMSCKSSQSVLYSSNQKNYLAWYQQKPGKSPKLLIYWASTRESGVPDRFTGSGSGTDFTLTISSLQPEDFATYYCHQYLSSLTFGQGTKLEIKR", "dataValue": 0.29}

In: Fill in: BaF3-hu αvβ5 Cell adhesion to vitronectin (IC50, nM) of ALULA-H4/L2-IgG4.P(S228P)/IgG1(N297Q) (antibody, V domains shown, Hybrid aglycosylated IgG4.P (S228P)/IgG1 (N297Q) heavy chain, human kappa light chain; also called VH4/VL2 (Agly-IgG4P/G1); H4/L2 antibody) VH: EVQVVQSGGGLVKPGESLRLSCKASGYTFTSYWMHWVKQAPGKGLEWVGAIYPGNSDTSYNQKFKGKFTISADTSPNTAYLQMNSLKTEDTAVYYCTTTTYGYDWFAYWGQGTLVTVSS VL: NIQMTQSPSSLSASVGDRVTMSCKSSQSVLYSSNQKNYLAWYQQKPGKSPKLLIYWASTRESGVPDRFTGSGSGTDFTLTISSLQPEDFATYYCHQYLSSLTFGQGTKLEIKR is ___
Out: 0.1

Reference source: patent US20170362324A1
